# credit: ChEMBL document CHEMBL5442219

# reported inhibition; entries follow
target.system: UniProtKB P28566
Sequence (P28566 whole entry): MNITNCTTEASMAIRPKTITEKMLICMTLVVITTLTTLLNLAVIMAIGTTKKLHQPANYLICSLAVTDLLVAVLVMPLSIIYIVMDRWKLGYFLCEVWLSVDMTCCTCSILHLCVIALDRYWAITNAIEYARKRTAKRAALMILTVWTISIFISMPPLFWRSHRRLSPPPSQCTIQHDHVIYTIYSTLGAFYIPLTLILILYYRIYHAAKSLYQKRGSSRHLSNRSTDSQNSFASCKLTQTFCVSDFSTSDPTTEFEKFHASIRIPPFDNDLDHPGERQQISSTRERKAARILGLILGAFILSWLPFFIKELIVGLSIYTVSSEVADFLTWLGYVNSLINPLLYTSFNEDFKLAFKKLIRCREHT
reported.conditions: Compound concentration 10 µM
Description: PDSP Primary Binding target: HTR1E - Compounds are tested at 10 uM concentration, plate are incubated at room temperature in the dark for 90 minutes. Reaction are stopped by vacuum filtration onto 0.3% polyethyleneimine soaked filter mats using Filtermate harvester. Scintilation cocktail is then melted onto microwave-dried filters on a hot plate and the radio activity is counted in Microbia counter.

smiles.entry	inhibition, %
COc1ccc(CNC(=O)c2cc(-c3cncc(Cl)c3)cnc2-c2ccccn2)nc1OC	12.9
CSc1ccc(C(=O)N[C@@H]2CCCC[C@@H]2NC(=O)CNC(=O)c2cc(C(F)(F)F)ccc2NC(=O)NC(C)C)cc1	-4.02
COc1ccc(NC(=O)c2ccc(-c3ccc(-c4noc(C)n4)cc3C)cc2)cc1OCCN(C)C	52.5
CN[C@@H]1CCc2[nH]c3ccc(C(N)=O)cc3c2C1	79.1
Cc1cn2cc(CC(=O)N3CCC4(CC3)CN(Cc3ccc(-n5nccn5)cc3Cl)C4)nc2s1	-2.62
COc1ccc(Br)cc1S(=O)(=O)NC(=O)/C=C/c1ccccc1Cc1ccc2ccccc2c1	1.84
Cc1cc(C)c(N)c(C#Cc2cccc(F)c2)n1	20.1
CCc1cc2c(c(CC)n1)CCC(=O)N2Cc1ccc(-c2ccccc2-c2nnn[nH]2)cc1	-6.23
CO[C@@H]1COCC[C@@H]1N[C@@H]1CC[C@@](C(=O)N2CCc3ncc(C(F)(F)F)cc3C2)(C(C)C)C1	9.5
